Tested on: A/Victoria/3/75 (H3N2)
Experiment: microbe, parasite or virus in culture
Assay type: cell-based
Settings: Influenza A virus, single agent, MDCK
Quantity Kind: pEC50
Friendly reminder that pEC50 comes from taking -log10 of the concentration in mol/L.

Some solved entries appear below for comparison.
CC(N)C12CC3CC(CC(C3)C1)C2 (centres unmarked) [Rimantadine] : 6.80
O=C(Nc1ncc([N+](=O)[O-])s1)c1ccccc1O [Tizoxanide] : 5.08
CCOC(=O)C1=C[C@@H](OC(CC)CC)[C@H](NC(C)=O)[C@@H](N)C1 [Oseltamivir] : 6.61
NC12CC3CC(CC(C3)C1)C2 [Amantadine] : 5.60

What the record says about O=C1c2c(O)c(=O)ccn2N([C@@H]2c3ccccc3SCc3c2ccc(F)c3F)[C@@H]2COCCN12 [III-1] : pEC50 is 8.46
